SYSTEM NAME: full-length beta-Catenin (Uniprot ID P35222) (Homo sapiens, UniProt P35222)
Construct: 10 nM full-length beta-Catenin (Uniprot ID P35222)
Sequence (P35222 1-781): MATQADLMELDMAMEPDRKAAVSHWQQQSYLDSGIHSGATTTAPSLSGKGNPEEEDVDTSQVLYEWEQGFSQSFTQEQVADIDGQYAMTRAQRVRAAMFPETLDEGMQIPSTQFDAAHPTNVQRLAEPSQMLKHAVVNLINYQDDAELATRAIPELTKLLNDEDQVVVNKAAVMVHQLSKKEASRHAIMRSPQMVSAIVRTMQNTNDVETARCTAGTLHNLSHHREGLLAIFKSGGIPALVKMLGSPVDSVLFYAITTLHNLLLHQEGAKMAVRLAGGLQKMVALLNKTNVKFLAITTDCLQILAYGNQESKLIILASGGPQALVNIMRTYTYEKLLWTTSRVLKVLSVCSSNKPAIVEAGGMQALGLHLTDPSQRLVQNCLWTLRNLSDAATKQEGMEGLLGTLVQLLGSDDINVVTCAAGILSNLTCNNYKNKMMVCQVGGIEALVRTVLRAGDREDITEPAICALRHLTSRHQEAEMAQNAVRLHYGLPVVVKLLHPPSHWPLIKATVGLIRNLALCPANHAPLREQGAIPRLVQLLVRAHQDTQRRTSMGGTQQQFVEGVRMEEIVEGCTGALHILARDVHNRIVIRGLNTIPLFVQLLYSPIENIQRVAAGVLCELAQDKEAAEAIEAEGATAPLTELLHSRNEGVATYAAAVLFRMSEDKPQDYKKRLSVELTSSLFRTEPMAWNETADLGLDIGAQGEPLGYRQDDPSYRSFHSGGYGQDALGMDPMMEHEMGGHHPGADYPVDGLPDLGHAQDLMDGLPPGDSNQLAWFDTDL
PROTOCOL NOTES: Fluorescence polarization IC50 (beta-catenin / 5FAM-TCF4 10-53 competition)
Format: binding
CONDITION CONTEXT: Table E2-1; read-out: beta-Catenin FP IC50
READOUT LABEL: IC50 (nM)
Give just the numeric value; nM need not be written.

Solved entries (count: 2):
| COMPOUND | UNITS LABEL | IC50 |
| --- | --- | --- |
| CC(=O)N1CCC[C@]12CC=CCCCC1(CCCC=CCCCCCC[C@@](C)(C(=O)N[C@@H](Cc3cccc(F)c3)C(=O)N[C@@H](Cc3csc4ccccc34)C(=O)N[C@@H](CCC(N)=O)C(N)=O)NC(=O)[C@H](C(C)C)NC(=O)[C@H](Cc3ccccc3)NC(=O)[C@H](C)NC(=O)[C@H](C)NC(=O)[C@H](CC(N)=O)NC(=O)[C@H](CC(=O)O)NC1=O)NC(=O)[C@H](C)NC(=O)[C@H](CC(=O)O)NC2=O (stereo partly drawn) [I-382] | nM | 2060 |
| CC(=O)N1CCC[C@]12CC=CCCCC1(CCCC=CCCCCCC[C@@](C)(C(=O)N[C@@H](Cc3ccccc3)C(=O)N[C@@H](Cc3csc4ccccc34)C(=O)N[C@@H](CCC(N)=O)C(N)=O)NC(=O)[C@H](C)NC(=O)[C@H](Cc3ccccc3C)NC(=O)[C@H](C)NC(=O)[C@H](C)NC(=O)[C@H](CC(=O)O)NC(=O)[C@H](CC(=O)O)NC1=O)NC(=O)[C@H](C)NC(=O)[C@H](CC(=O)O)NC2=O (stereo partly drawn) [I-365] | nM | 2720 |

--- query ---
Query: IC50; subject: CC(=O)N1CCC[C@]12CC=CCCCC1(CCCC=CCCCCCC[C@@](C)(C(=O)N[C@@H](Cc3ccccc3)C(=O)N[C@@H](Cc3csc4ccccc34)C(=O)N[C@@H](CCC(N)=O)C(N)=O)NC(=O)[C@H](C)NC(=O)[C@H](Cc3ccc4ccccc4c3)NC(=O)[C@H](C)NC(=O)[C@H](C)NC(=O)[C@H](CC(=O)O)NC(=O)[C@H](CC(=O)O)NC1=O)NC(=O)[C@H](C)NC(=O)[C@H](CC(=O)O)NC2=O (stereo partly drawn) [I-370] 1560

###

SYSTEM NAME: full-length beta-Catenin (Uniprot ID P35222) (Homo sapiens, UniProt P35222)
Construct: 10 nM full-length beta-Catenin (Uniprot ID P35222)
PROTOCOL NOTES: Fluorescence polarization IC50 (beta-catenin / 5FAM-TCF4 10-53 competition)
Format: binding
CONDITION CONTEXT: Table E2-1; read-out: beta-Catenin FP IC50
READOUT LABEL: IC50 (nM)
Your answer should be a plain number; it is taken to be in nM.

Completed entries (count: 2):
| MOLECULE | SYSTEM NAME | READOUT LABEL | READOUT VALUE |
| --- | --- | --- | --- |
| CC[C@H](C)[C@H](NC(=O)[C@H](CC(=O)O)NC(=O)[C@H](C)NC(C)=O)C(=O)N[C@]1(C)CCN(C)C(=O)OCC=CCCCCC[C@@](C)(C(=O)N[C@@H](Cc2ccccc2)C(=O)N[C@@H](Cc2c[nH]c3ccccc23)C(=O)N[C@@H](C)C(N)=O)NC(=O)[C@H](CCC(N)=O)NC(=O)[C@H](Cc2ccccc2)NC(=O)[C@H](C)NC(=O)[C@H](C)NC(=O)[C@H](CCC(=O)O)NC(=O)[C@H](CC(=O)O)NC1=O | full-length beta-Catenin (Uniprot ID P35222) (Homo sapiens, UniProt P35222) | IC50 | 2140 |
| CC(=O)N1CCC[C@]12CC=CCCCC1(CCCC=CCCCCCC[C@@](C)(C(=O)N[C@@H](Cc3ccccc3)C(=O)N[C@@H](Cc3csc4ccccc34)C(=O)N[C@@H](CCC(N)=O)C(N)=O)NC(=O)[C@H](C)NC(=O)[C@H](Cc3ccccc3C)NC(=O)[C@H](C)NC(=O)[C@H](C)NC(=O)[C@H](CC(=O)O)NC(=O)[C@H](CC(=O)O)NC1=O)NC(=O)[C@H](C)NC(=O)[C@H](CC(=O)O)NC2=O (stereo partly drawn) [I-366] | full-length beta-Catenin (Uniprot ID P35222) (Homo sapiens, UniProt P35222) | IC50 | 1440 |

# lookup: IC50 of CC(=O)N1CCC[C@]12CC=CCCCC1(CCCC=CCCCCCC[C@@](C)(C(=O)N[C@@H](Cc3ccccc3)C(=O)N[C@@H](Cc3c[nH]c4ccccc34)C(=O)N[C@@H](CCC(N)=O)C(N)=O)NC(=O)[C@H](C(C)C)NC(=O)[C@H](Cc3ccccc3F)NC(=O)[C@H](C)NC(=O)[C@H](C)NC(=O)[C@H](CC(=O)O)NC(=O)[C@H](CC(=O)O)NC1=O)NC(=O)[C@H](C)NC(=O)[C@H](CC(=O)O)NC2=O (stereo partly drawn) 5000

###

SYSTEM NAME: full-length beta-Catenin (Uniprot ID P35222) (Homo sapiens, UniProt P35222)
Construct: 10 nM full-length beta-Catenin (Uniprot ID P35222)
PROTOCOL NOTES: Fluorescence polarization IC50 (beta-catenin / 5FAM-TCF4 10-53 competition)
Format: binding
CONDITION CONTEXT: read-out: beta-Catenin FP IC50
pIC50 overview
Units for pIC50: none; it is -log10 of a concentration expressed in mol/L.

| MOLECULE | READOUT VALUE |
| --- | --- |
| CC(=O)N1CCC[C@]12CC=CCCCC1(CCCC=CCCCOC(=O)N3CC[C@@](C(=O)N[C@@H](Cc4ccccc4Cl)C(=O)N[C@@H](Cc4csc5ccccc45)C(=O)N[C@H](C(N)=O)[C@@H](C)O)(C3)NC(=O)[C@H](CC(C)C)NC(=O)[C@H](Cc3ccccc3)NC(=O)[C@H](C)NC(=O)[C@H](C)NC(=O)[C@H](CC(=O)O)NC(=O)[C@H](CC(=O)O)NC1=O)NC(=O)[C@H](CC(C)(C)C)NC(=O)[C@H](CC(=O)O)NC2=O (some centres unmarked) [I-1069] | 6.04 |

Now look at this entry.
Which pIC50 value belongs to CC(=O)N1CCC[C@]12CC=CCCCC1(CCCC=CCCCOC(=O)N3CC[C@@](C(=O)N[C@@H](Cc4ccsc4)C(=O)N[C@@H](Cc4csc5ccccc45)C(=O)N[C@@H](CCC(N)=O)C(=O)N[C@@H](CCCCNC(=O)c4ccc(CN5CCN(C)CC5)cc4)C(N)=O)(C3)NC(=O)[C@H](CC(N)=O)NC(=O)[C@H](Cc3ccccc3)NC(=O)[C@H](C)NC(=O)[C@H](C)NC(=O)[C@H](CC(=O)O)NC(=O)[C@H](CC(=O)O)NC1=O)NC(=O)[C@H](CC(C)(C)C)NC(=O)[C@H](CC(=O)O)NC2=O (some centres unmarked) ? 8.00

###

Measured IC50 values are reported for all entries that follow.
SYSTEM NAME: full-length beta-Catenin (Uniprot ID P35222) (Homo sapiens, UniProt P35222)
Construct: 10 nM full-length beta-Catenin (Uniprot ID P35222)
Sequence (P35222 1-781): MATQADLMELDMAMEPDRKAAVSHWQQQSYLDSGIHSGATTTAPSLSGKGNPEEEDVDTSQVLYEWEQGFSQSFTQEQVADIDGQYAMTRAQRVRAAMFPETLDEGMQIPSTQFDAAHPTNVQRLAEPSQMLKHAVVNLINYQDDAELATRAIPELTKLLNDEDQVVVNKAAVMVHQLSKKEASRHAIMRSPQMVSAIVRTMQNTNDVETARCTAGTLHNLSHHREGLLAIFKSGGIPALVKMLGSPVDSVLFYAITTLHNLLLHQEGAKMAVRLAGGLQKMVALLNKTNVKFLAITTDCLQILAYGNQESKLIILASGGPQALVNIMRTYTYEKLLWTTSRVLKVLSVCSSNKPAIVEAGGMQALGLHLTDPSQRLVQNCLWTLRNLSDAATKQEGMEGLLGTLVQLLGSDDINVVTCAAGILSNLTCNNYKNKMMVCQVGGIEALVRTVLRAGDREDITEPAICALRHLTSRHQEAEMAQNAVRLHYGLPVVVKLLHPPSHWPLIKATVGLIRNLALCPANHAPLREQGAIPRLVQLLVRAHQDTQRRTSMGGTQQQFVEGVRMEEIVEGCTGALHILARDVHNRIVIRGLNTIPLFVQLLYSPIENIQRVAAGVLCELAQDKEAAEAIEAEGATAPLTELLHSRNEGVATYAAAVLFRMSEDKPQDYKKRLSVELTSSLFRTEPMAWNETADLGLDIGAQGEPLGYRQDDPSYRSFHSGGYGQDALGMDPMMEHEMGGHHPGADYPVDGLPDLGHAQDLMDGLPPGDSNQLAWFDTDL
PROTOCOL NOTES: Fluorescence polarization IC50 (beta-catenin / 5FAM-TCF4 10-53 competition)
Format: binding
CONDITION CONTEXT: Table E2-1; read-out: beta-Catenin FP IC50
Express it in nM; write the number only.

| MOLECULE | SYSTEM NAME | READOUT LABEL | READOUT VALUE |
| --- | --- | --- | --- |
| CC(=O)N1CCC[C@]12CC=CCCCC1(CCCC=CCCCCCC[C@@](C)(C(=O)N[C@@H](Cc3ccccc3)C(=O)N[C@@H](Cc3c[nH]c4ccccc34)C(=O)N[C@@H](CCC(N)=O)C(N)=O)NC(=O)[C@H](C(C)C)NC(=O)[C@H](Cc3cc(F)cc(F)c3)NC(=O)[C@H](C)NC(=O)[C@H](C)NC(=O)[C@H](CCC(=O)O)NC(=O)[C@H](CC(=O)O)NC1=O)NC(=O)[C@H](C)NC(=O)[C@H](CC(=O)O)NC2=O (stereo partly shown) [I-219] | full-length beta-Catenin (Uniprot ID P35222) (Homo sapiens, UniProt P35222) | IC50 | 2860 |
| CC[C@H](C)[C@H](NC(=O)[C@H](CC(=O)O)NC(=O)[C@H](C)NC(C)=O)C(=O)N[C@]1(C)CCN(C)C(=O)OCC=CCCCCC[C@@](C)(C(=O)N[C@@H](Cc2ccccc2)C(=O)N[C@@H](Cc2c[nH]c3ccccc23)C(=O)N[C@@H](Cc2c[nH]cn2)C(N)=O)NC(=O)[C@H](CCC(N)=O)NC(=O)[C@H](Cc2ccccc2)NC(=O)[C@H](C)NC(=O)[C@H](C)NC(=O)[C@H](CCC(=O)O)NC(=O)[C@H](CC(=O)O)NC1=O [I-67] | full-length beta-Catenin (Uniprot ID P35222) (Homo sapiens, UniProt P35222) | IC50 | 1230 |
| CC(=O)N1CCC[C@]12CC=CCCCC1(CCCC=CCCCCCC[C@@](C)(C(=O)N[C@@H](Cc3ccccc3)C(=O)N[C@@H](Cc3c[nH]c4ccccc34)C(=O)N[C@@H](CCC(N)=O)C(N)=O)NC(=O)[C@H](C)NC(=O)[C@H](Cc3ccccc3)NC(=O)[C@H](C)NC(=O)[C@H](C)NC(=O)[C@H](CC(=O)O)NC(=O)[C@H](CC(=O)O)NC1=O)NC(=O)[C@H](C)NC(=O)[C@H](CC(=O)O)NC2=O (stereo partly shown) [I-288] | full-length beta-Catenin (Uniprot ID P35222) (Homo sapiens, UniProt P35222) | IC50 | 1310 |

Next:
Short answer please: IC50, full-length beta-Catenin (Uniprot ID P35222) (Homo sapiens, UniProt P35222), entry CC(=O)N1CCC[C@]12CC=CCCCC1(CCCC=CCOC(=O)N(C)CC[C@@](C)(C(=O)N[C@@H](Cc3ccccc3)C(=O)N[C@@H](Cc3c[nH]c4ccccc34)C(=O)N[C@@H](CCC(N)=O)C(N)=O)NC(=O)[C@H](C(C)C)NC(=O)[C@H](Cc3ccccc3)NC(=O)[C@H](C)NC(=O)[C@H](C)NC(=O)[C@H](CC(=O)O)NC(=O)[C@H](CC(=O)O)NC1=O)NC(=O)[C@H](C)NC(=O)[C@H](CC(=O)O)NC2=O (stereo partly shown) [I-55] 5000
